B1: KLHL12 (parent)
chain: LDYTADEDGVWYSVAPMNVRRGLA

- Variants of: B1
- Method: protein stability index of a GFP-peptide fusion (GPS, HEK-293T) (PSI 1-6); higher = more stable;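 further: lentivirally expressed fusions sorted by FACS into six bins by GFP to DsRed ratio, PSI derived from sequencing read proportions per bin multiplied by bin number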
- Protocol Conditions: c terminus: a fixed tail appended
Provide the reported protein stability index of each item.
Reply with just the number.

Quick one: give measured protein stability index for R20E
3.32

Quick one: give measured protein stability index for D6T
1.91

Quick one: give measured protein stability index for Y12S
3.12

Quick one: give measured protein stability index for R21F
2.85

Quick one: give measured protein stability index for V14L
1.82

Quick one: give measured protein stability index for A24G
2.17

Quick one: give measured protein stability index for R21H
1.75

Quick one: give measured protein stability index for D6M
2.18

Quick one: give measured protein stability index for A24T
2.11

Quick one: give measured protein stability index for D6W
2.71

Quick one: give measured protein stability index for V14M
2.33

Quick one: give measured protein stability index for V19A
1.93

Quick one: give measured protein stability index for M17F
1.55

Quick one: give measured protein stability index for A15W
1.57

Quick one: give measured protein stability index for A15G
2.06

Quick one: give measured protein stability index for A15D
2.32

Quick one: give measured protein stability index for T4A
2.24

Quick one: give measured protein stability index for A5Y
2.6

Quick one: give measured protein stability index for D8C
2.81

Quick one: give measured protein stability index for R21K
1.8

Quick one: give measured protein stability index for E7W
2.19

Quick one: give measured protein stability index for L23D
2.46

Quick one: give measured protein stability index for L1K
2.75

Quick one: give measured protein stability index for D8Y
2.23

Quick one: give measured protein stability index for L23F
1.83

Quick one: give measured protein stability index for D2R
1.93

Quick one: give measured protein stability index for W11P
3.56

Quick one: give measured protein stability index for L1I
1.89

Quick one: give measured protein stability index for E7K
2.01

Quick one: give measured protein stability index for L1P
3.41

Quick one: give measured protein stability index for D8G
1.74

Quick one: give measured protein stability index for G9Y
2.37

Quick one: give measured protein stability index for N18S
2.01

Quick one: give measured protein stability index for G9H
2.2

Quick one: give measured protein stability index for W11M
2.72

Quick one: give measured protein stability index for R20S
2.31

Quick one: give measured protein stability index for E7I
2.43

Quick one: give measured protein stability index for G22M
1.95

Quick one: give measured protein stability index for R21N
1.65

Quick one: give measured protein stability index for L23W
1.37
